# procedure details: Ex vivo biodistribution in mice bearing LNCaP tumor xenografts
# Design: species or system mouse (male NOD-scid IL2Rg^null (NSG))
# stated conditions: mouse, lncap tumor, iv, 1 h post-injection, mean ± SD; read-out: LNCaP Tumor uptake
# From the text: All imaging and biodistribution studies used male NOD-scid IL2Rg^null (NSG) mice and conducted according to the guidelines established by the Canadian Council on Animal Care and approved by Animal Ethics Committee of the University of British Columbia. For tumor inoculations, mice were anesthetized via inhalation of 2% isoflurane in oxygen and implanted subcutaneously with 5×10^6 LNCaP cells below the left shoulder. […]
observed property: tissue uptake at 1 h (%ID/g)

compound	tissue uptake at 1 h / %ID/g
O=C(O)CCC[C@H](NC(=O)N[C@@H](CCCCNC(=O)[C@H](Cc1c2ccccc2cc2ccccc12)NC(=O)[C@H]1CC[C@H](CNC(=O)CNC(=O)[C@H](CCCCNC(=O)c2ccc(F)nc2)NC(=O)CN(CC(=O)O)CC(=O)O)CC1)C(=O)O)C(=O)O [^18F-KL01130]	8.01

1 = O=C(O)CCC[C@H](NC(=O)N[C@@H](CCCCNC(=O)[C@H](Cc1c2ccccc2cc2ccccc12)NC(=O)[C@H]1CC[C@H](CNC(=O)[C@H](CCCCNC(=O)c2ccc(F)nc2)NC(=O)CN(CC(=O)O)CC(=O)O)CC1)C(=O)O)C(=O)O [^18F-KL01040]
2 = O=C(O)CC[C@H](NC(=O)N[C@@H](CCCCNC(=O)[C@H](Cc1c2ccccc2cc2ccccc12)NC(=O)[C@H]1CC[C@H](CNC(=O)[C@H](CCNC(=O)c2ccc(F)nc2)NC(=O)CCC(=O)N(CC(=O)O)CC(=O)O)CC1)C(=O)O)C(=O)O [^18F-KL01120]
Q. Recorded tissue uptake at 1 h values differ for 1 and 2 ; which one is higher? Provide the label of your selected option as the answer.
A. 1

----------
# procedure details: Ex vivo biodistribution in mice bearing LNCaP tumor xenografts
# Parameters: species or system mouse (male NOD-scid IL2Rg^null (NSG))
# stated conditions: mouse, stomach, iv, 1 h post-injection, mean ± SD; read-out: Stomach uptake
observed property: tissue uptake at 1 h (%ID/g)

molecule	recorded value
O=C(O)CCC[C@H](NC(=O)N[C@@H](CCCCNC(=O)[C@H](Cc1c2ccccc2cc2ccccc12)NC(=O)[C@H]1CC[C@H](CNC(=O)[C@H](CCCCNC(=O)c2ccc(F)nc2)NC(=O)CN(CC(=O)O)CC(=O)O)CC1)C(=O)O)C(=O)O [^18F-KL01040]	0.2

a = O=C(O)CCC[C@H](NC(=O)N[C@@H](CCCCNC(=O)[C@H](Cc1c2ccccc2cc2ccccc12)NC(=O)[C@H]1CC[C@H](CNC(=O)CNC(=O)[C@H](CCCCNC(=O)c2ccc(F)nc2)NC(=O)CN(CC(=O)O)CC(=O)O)CC1)C(=O)O)C(=O)O [^18F-KL01130]
b = O=C(O)CC[C@H](NC(=O)N[C@@H](CCCCNC(=O)[C@H](Cc1c2ccccc2cc2ccccc12)NC(=O)[C@H]1CC[C@H](CNC(=O)[C@H](CCNC(=O)c2ccc(F)nc2)NC(=O)CCC(=O)N(CC(=O)O)CC(=O)O)CC1)C(=O)O)C(=O)O [^18F-KL01120]
Q. Recorded tissue uptake at 1 h values differ for a and b ; which one is higher? Provide the label of your selected option as the answer.
A. b
